Data provenance: PubChem BioAssay (NCI)

Measured TGI values are reported for all entries that follow.
System: SW-620 colon
Test: NCI tumour cell line growth inhibition, 48 h
Where a SMILES comes first, the peptide text is derived from it. The star is where a group is joined. Bn = c1ccc(C*)cc1

[in] State its TGI: O=C1CCc2ccc3c(c21)CC1(Cc2ccccc2C1)C3
[out] > 100 µM

[in] Give recorded TGI. CN(C)CCSc1nccc(-c2cc3ccccc3s2)n1
[out] 36.7 µM

[in] In one line, give reported TGI of the entry COC(=O)C(CC(C)C)NC(=O)C(N)Cc1ccc(OCc2ccccc2)cc1 (stereo not drawn) (H-Tyr(Bn)-Leu-OMe; configuration not given here) .
[out] > 10 µM
